For each of the compounds below, state its composite z-score.
- assayedSystem: Focal adhesion kinase 1 (Homo sapiens) (UniProt Q05397)
- Sequence (Q05397 whole entry, looked up): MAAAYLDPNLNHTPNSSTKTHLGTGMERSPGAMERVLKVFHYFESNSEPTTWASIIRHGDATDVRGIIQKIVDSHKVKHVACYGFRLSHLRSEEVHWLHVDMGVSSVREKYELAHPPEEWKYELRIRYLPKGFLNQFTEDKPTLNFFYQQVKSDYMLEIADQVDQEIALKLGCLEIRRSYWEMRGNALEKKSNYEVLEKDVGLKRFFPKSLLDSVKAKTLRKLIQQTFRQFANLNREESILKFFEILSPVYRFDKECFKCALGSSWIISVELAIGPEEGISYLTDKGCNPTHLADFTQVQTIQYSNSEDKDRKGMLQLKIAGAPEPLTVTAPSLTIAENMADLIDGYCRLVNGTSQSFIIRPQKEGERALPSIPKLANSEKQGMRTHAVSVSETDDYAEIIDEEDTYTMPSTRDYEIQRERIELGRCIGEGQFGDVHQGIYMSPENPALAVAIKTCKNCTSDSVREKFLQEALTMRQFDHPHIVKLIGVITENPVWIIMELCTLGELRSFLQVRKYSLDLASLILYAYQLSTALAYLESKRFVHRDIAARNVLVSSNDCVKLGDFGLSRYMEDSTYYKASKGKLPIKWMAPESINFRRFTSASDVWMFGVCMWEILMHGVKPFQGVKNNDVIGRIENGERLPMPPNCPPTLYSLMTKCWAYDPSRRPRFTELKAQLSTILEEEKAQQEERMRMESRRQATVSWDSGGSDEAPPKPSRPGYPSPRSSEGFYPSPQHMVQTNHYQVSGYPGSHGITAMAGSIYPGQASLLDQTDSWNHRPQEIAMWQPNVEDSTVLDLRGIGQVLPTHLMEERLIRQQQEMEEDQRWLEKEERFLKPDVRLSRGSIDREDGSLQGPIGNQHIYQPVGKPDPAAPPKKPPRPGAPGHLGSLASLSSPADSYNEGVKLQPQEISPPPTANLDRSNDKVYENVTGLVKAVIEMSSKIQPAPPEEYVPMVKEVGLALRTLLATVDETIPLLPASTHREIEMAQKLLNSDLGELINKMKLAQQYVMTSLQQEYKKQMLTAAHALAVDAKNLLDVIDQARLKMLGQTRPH
- assay: small-molecule microarray binders of FAK, primary screen, biochemical, 635/667 nm fluorescence, BSA, DTT (AID 1130);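 further: composite of spot emission at 667 nm and signal to noise over triplicate slides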
- runParameters: PTK2 binding, 635 nm fluorescence, higher = more signal
// print number alone

// field: composite z-score; key: CCOC(=O)c1ccc(NC(=O)O[C@H]2[C@H](OC(=O)Nc3ccc4c(c3)OCO4)[C@@H](OC(=O)Nc3ccc4c(c3)OCO4)[C@@H](OC)O[C@@H]2CO)cc1 ; value = 0.891

The measured composite z-score associated with C=CCC(OC(C)=O)[C@@H]1[C@@H](N(Cc2ccc(-c3cccc(C(F)(F)F)c3)o2)C(=O)c2ccc(-c3ccccc3)cc2)c2cc(OCCCO)ccc2N1C(=O)c1ccc2ccccc2n1 (some centres not stated) reads 0.0509

# composite z-score of Cc1ccc(S[C@]2(C(=O)NCC(F)(F)F)CC(=O)N(C3CCCCC3)[C@@H]2c2ccc(CO)cc2I)cc1 = 0.543

composite z-score in this record for O=C1O[C@H](c2ccccc2)[C@H](c2ccccc2)N2[C@H]1[C@@H](C(=O)N1CCN(c3ncccn3)CC1)[C@]1(C(=O)Nc3ccc(C#CC4(O)CCCCCC4)cc31)[C@H]2c1ccc(OCCO)cc1 : 1.03

# composite z-score of CC(C)N1CC=CC23O[C@@H]4C=CCOC(=O)[C@@H]4[C@H]2C(=O)N(CCCO)[C@@H]3C1=O (some centres not stated) = 1.01

compound COCCCNC(=O)[C@]1(CCS(=O)(=O)c2ccccc2)N=C(c2ccc(OCCCO)cc2)O[C@@H]1c1ccccc1N=[N+]=[N-] , composite z-score observed: -0.0436

For O=C(NCC(F)(F)F)[C@@H]1c2ccccc2C(=O)N(Cc2ccccc2C(F)(F)F)[C@H]1c1ccc(CO)cc1 the compound record lists composite z-score as -0.335

###

Assignment: determine reported z-score for the given compounds.
- assayedSystem: NADPH oxidase 2 (Homo sapiens)
- assay: NOX2-dependent H2O2 signal modulators, primary screen, NOX inhibitor project, cell-based, HEK293-NOX2, PMA-stimulated, Amplex Red fluorescence (AID 1159); further: test concentration not given here
- runParameters: 45 min, higher = more signal, called active from +8 up or from −8 down
Lab note: write the figure by itself, no unit.

In plain terms, C=C(/C(=C/C[C@H](OC(C)=O)c1cccc(OCCO)c1)c1cnc2ccccc2c1)C(C)C has a documented z-score of 0.175

C=CCC(OC(C)=O)[C@@H]1[C@@H](N(Cc2cc3ccccc3o2)C(=O)c2ccc(C)cc2)c2cc(OCCCO)ccc2N1C(=O)Cc1ccc(OC)cc1 (some centres undefined) has a reported z-score of 0.391

The reported z-score of the compound CC(CO)N1C(=O)[C@@H]2[C@H]3C(=O)OCC=C[C@H]3OC23C=CCN(C(C)(C)C)C(=O)[C@@H]13 (some centres undefined) was 0.566

Per the record, [N-]=[N+]=Nc1ccccc1[C@@H]1OC(c2ccc(OCCCO)cc2)=N[C@]1(Cc1ccccc1)C(=O)NCC(O)CO (some centres undefined) has z-score of -1.36

###

- assayedSystem: NADPH oxidase 2 (Homo sapiens) (UniProt P04839)
- Sequence (P04839 whole entry, looked up): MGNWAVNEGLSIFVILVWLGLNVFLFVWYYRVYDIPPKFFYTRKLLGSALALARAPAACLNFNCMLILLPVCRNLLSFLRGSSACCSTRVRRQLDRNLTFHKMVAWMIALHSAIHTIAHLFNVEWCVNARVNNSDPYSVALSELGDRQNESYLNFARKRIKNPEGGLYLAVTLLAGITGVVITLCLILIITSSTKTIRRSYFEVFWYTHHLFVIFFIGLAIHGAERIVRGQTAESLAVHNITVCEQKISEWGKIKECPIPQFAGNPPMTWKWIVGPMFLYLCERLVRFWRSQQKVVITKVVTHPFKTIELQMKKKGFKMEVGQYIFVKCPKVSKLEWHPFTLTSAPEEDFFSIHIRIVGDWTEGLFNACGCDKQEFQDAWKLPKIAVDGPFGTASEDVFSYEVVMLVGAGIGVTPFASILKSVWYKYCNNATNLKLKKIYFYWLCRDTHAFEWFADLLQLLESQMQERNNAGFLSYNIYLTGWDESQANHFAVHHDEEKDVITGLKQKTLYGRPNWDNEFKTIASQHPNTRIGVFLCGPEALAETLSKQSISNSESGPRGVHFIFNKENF
- assay: NOX2-dependent H2O2 signal modulators, primary screen, NOX inhibitor project, cell-based, HEK293-NOX2, PMA-stimulated, Amplex Red fluorescence (AID 1159); further: test concentration not given here
- runParameters: 45 min, higher = more signal, called active from +8 up or from −8 down
Binary call on z-score: satisfied from 0.2 upward, not satisfied beneath that.

# input API: above_or_equal(metric=z-score, cutoff=0.2) for item CCCCCCCCCCC(O)C1C=CC2C(=O)N(C)C(=O)C2N1NC(=O)OC(C)(C)C (stereo not drawn)
# output not satisfied

# input API: above_or_equal(metric=z-score, cutoff=0.2) for item COCCOC(=O)N1C(=O)[C@@]2(c3ccccc31)[C@H](C(=O)N1CCN(c3ncccn3)CC1)[C@H]1C(=O)O[C@H](c3ccccc3)[C@H](c3ccccc3)N1[C@@H]2c1ccc(O)cc1
# output satisfied

# input Hello, I need to know if [N-]=[N+]=NCc1ccccc1C[C@@]1(C(=O)N2CCCCC2)N=C(c2ccc(OCCCO)cc2)O[C@@H]1c1ccccc1 has measured z-score not below 0.2. Thanks!
# output not satisfied

# input API: above_or_equal(metric=z-score, cutoff=0.2) for item CC(C)(C)OC(=O)CC[C@]1(C(=O)NCC(O)CO)N=C(c2ccc(OCCCO)cc2)O[C@H]1c1ccccc1 (stereo partly drawn)
# output satisfied

# input Is it the case that O=C(NCC(F)(F)F)[C@@H]1c2ccccc2C(=O)N(Cc2ccc(OC(F)(F)F)cc2)[C@H]1c1ccc(CO)cc1 has z-score reaching or exceeding 0.2?
# output not satisfied

# input Tell me whether z-score is at least 0.2 here: CC(c1ccccc1)C(O)C1C=CC2C(=O)N(c3ccccc3)C(=O)C2N1Nc1ccc([N+](=O)[O-])cc1 (stereo not drawn)
# output not satisfied

# input Quick check, z-score >= 0.2? CC(C)Cc1ccc(CN2CC[C@@H](NC(=O)Nc3ccccc3)C2)cc1
# output not satisfied

# input Confirm if z-score reported for the compound COC(=O)c1nc2oc1CC[C@@H](CO)NC(=O)N(C)Cc1cnnn1C[C@H](Cc1ccccc1)NC2=O is 0.2 or above.
# output not satisfied

# input // inclusive: z-score at least 0.2? input: CCCCN1CC=CC23O[C@@H]4/C=C\CCC(C)OC(=O)C4[C@H]2C(=O)N(C(CO)C(C)C)[C@@H]3C1=O (stereo partly drawn)
# output satisfied

# input In plain terms: is recorded z-score at least 0.2 for COc1ccc(CN(C2=CC[C@@]3(C(N)=O)C(=O)C(Cl)=C(Cl)C(=O)[C@@]3(C#N)C2)S(=O)(=O)c2ccc(Br)cc2)cc1 ?
# output satisfied

# input Is reported z-score greater than or equal to 0.2 here: [N-]=[N+]=Nc1ccccc1C[C@]1(C(N)=O)N=C(c2ccc(OCCCO)cc2)O[C@H]1c1ccccc1N=[N+]=[N-]
# output not satisfied

# input Check this compound for z-score at or above 0.2: O=C1O[C@@H](c2ccccc2)[C@@H](c2ccccc2)N2[C@@H](c3ccccc3OCCO)[C@]3(C(=O)Nc4ccc(C#CCCO)cc43)[C@@H](C(=O)N3CCCCCCC3)[C@H]12
# output satisfied

# input State whether the measured z-score reaches 0.2, counting equality as reaching it, for NCCCCCNC(=O)[C@@H]1C[C@@H]2C(=O)NCC(=O)N2[C@@H]1c1cccc(OCCO)c1
# output satisfied

# input Decide: z-score of CC(C)(C)OC(=O)CC[C@@]1(C(=O)NCc2ccccc2)N=C(c2ccc(OCCCO)cc2)O[C@@H]1c1ccccc1N=[N+]=[N-] >= 0.2?
# output not satisfied

# input Could you please find out whether O=C1C2C=CC(C(O)c3ccc(Br)cc3)N(Nc3ccccc3F)C2C(=O)N1c1ccccc1 (stereo not drawn) has z-score that meets 0.2 or exceeds it?
# output not satisfied

# input In plain terms: is recorded z-score at least 0.2 for COC(=O)C(CC#Cc1ccc2c(c1)[C@]1(C(=O)N2)[C@H](c2ccccc2OCCO)N2[C@H](c3ccccc3)[C@H](c3ccccc3)OC(=O)[C@H]2[C@@H]1C(=O)NC[C@H](O)c1ccccc1)C(=O)OC ?
# output satisfied

# input Given the entry O=C1c2ccccc2[C@](Cc2ccccc2I)(C(=O)NCC(F)(F)F)[C@H](c2ccc(CO)cc2)N1C1CCCCC1 , answer whether its z-score meets or surpasses 0.2.
# output not satisfied

# input // inclusive: z-score at least 0.2? input: COC(=O)[C@@]1(Cc2ccc(F)cc2)[C@H]2c3cc(C(=O)N4CCCC4)n(CCc4ccc(O)c(O)c4)c3C[C@H]2CN1C(=O)c1ccccc1
# output not satisfied

# input Given the entry CCOC(=O)C[C@H]1[C@H](OC(=O)Cc2ccc3c(c2)OCO3)[C@@H](NC(=O)CC(C)C)c2cc(OCCCO)ccc2N1C(=O)Cc1ccc(OC)cc1 , answer whether its z-score meets or surpasses 0.2.
# output not satisfied

# input Decide: is the reported value of z-score for CCOC(=O)C[C@H]1[C@H](OC(=O)c2ccccc2-c2ccccc2)[C@@H](NC(=O)c2ccc(-c3ccccc3)cc2)c2cc(OCCCO)ccc2N1C(=O)c1ccc2ccccc2n1 equal to or greater than 0.2?
# output satisfied

# input Check the entry O=C(N1CCCCC1)[C@@]1(CCS(=O)(=O)c2ccccc2)COC(c2ccc(OCCCO)cc2)=N1 : does z-score equal or exceed 0.2?
# output not satisfied

# input Please indicate if the recorded z-score for NCCCCCCNC(=O)[C@@H]1C[C@@H]2C(=O)N[C@@H](CCCCN)C(=O)N2[C@@H]1c1cccc(OCCO)c1 meets or exceeds 0.2.
# output satisfied

# input Hi team, for COCCCNC(=O)[C@@]1(Sc2ccc(C)cc2)CC(=O)N(C2CCCCC2)[C@@H]1c1ccc(CO)cc1 , is the recorded z-score at or above 0.2?
# output not satisfied

# input Entry C=CCOC(=O)[C@H]1[C@@H]2C(=O)O[C@@H](c3ccccc3)[C@@H](c3ccccc3)N2[C@@H](c2ccc(OCCOC(=O)[C@H]3C[C@H]4C(=O)N[C@@H](CCCCNC(C)=O)C(=O)N4[C@H]3c3ccc(O)cc3)cc2)[C@]12C(=O)Nc1ccccc12 : is its z-score no less than 0.2?
# output satisfied

# input Item COC(=O)[C@@]1(Cc2ccc(F)cc2)[C@H]2c3cc(C(=O)N(C)C)n(CCc4ccc(O)c(OC)c4)c3C[C@H]2CN1C(=O)c1ccccc1 with z-score of 0.2 or above?
# output not satisfied

# input Has O=C1O[C@H](c2ccccc2)[C@H](c2ccccc2)N2[C@H]1[C@@H](C(=O)NC[C@H](O)c1ccccc1)[C@]1(C(=O)Nc3ccc(C#CCCO)cc31)[C@H]2c1ccc(OCCO)cc1 a recorded z-score greater than or equal to 0.2?
# output satisfied

# input Confirm if z-score reported for the compound O=C(NCCCCCNC(=O)/C(Cc1ccccc1)=N/O)OCc1ccccc1 is 0.2 or above.
# output satisfied
